Where do these numbers come from? They come from patent US20250129103A1.

- Assay Protocol: Determination of logD (1-octanol / phosphate buffer pH 7.4)
- Type: physicochemical
- Particulars: 1-octanol/phosphate buffer, pH 7.4, pH 7.4, 1-octanol/phosphate buffer; read-out: Log D, pH 7.4
# label = Satisfied if logD >= 4 else Not satisfied

Known results for compounds:
1. N#CC[C@H]1CN(c2nc(OC[C@@]34CCCN3C[C@H](F)C4)nc3c2CCN(c2cccc4ccc(F)c(Cl)c24)C3)CCN1C(=O)/C=C/c1nc(C2COC2)no1; Not satisfied
2. Cc1nccc(/C=C/C(=O)N2CCN(c3nc(OC[C@@]45CCCN4C[C@H](F)C5)nc4c3CCN(c3cccc5cccc(Cl)c35)C4)C[C@@H]2CC#N)n1; Satisfied
3. N#CC[C@H]1CN(c2nc(OC[C@@]34CCCN3C[C@H](F)C4)nc3c(F)c(-c4cccc5cccc(Cl)c45)ncc23)CCN1C(=O)/C=C/c1ccnc(C2CC2)n1; Satisfied
4. Cc1nsc(/C=C/C(=O)N2CCN(c3nc(OCC45CCCN4CCC5)nc4c3CCN(c3cccc5ccc(F)c(Cl)c35)C4)C[C@@H]2CC#N)n1; Not satisfied

# ---- query compound ----
## Input Is logD for N#CC[C@H]1CN(c2nc(OC[C@@]34CCCN3C[C@H](O)C4)nc3c2CCN(c2cccc4cccc(Cl)c24)C3)CCN1C(=O)/C=C/CN1CCOCC1 at or above 4?
## Output Not satisfied

###

- Assay Protocol: Determination of logD (1-octanol / phosphate buffer pH 7.4)
- Type: physicochemical
- Particulars: 1-octanol/phosphate buffer, pH 7.4, pH 7.4, 1-octanol/phosphate buffer; read-out: Log D, pH 7.4
logD values, listed per item
Lab note: record just the number, no unit beside it.

1. Cc1cc(N)nc([C@@H]2Cc3nc(OC[C@@]45CCCN4C[C@H](F)C5)nc(N4CCN(C(=O)/C=C/c5nc([C@H]6C[C@@H]6F)no5)[C@@H](CC#N)C4)c3C[C@H]2C)c1C(F)(F)F [Compound 136]; 4.37
2. CC(C)c1noc(/C=C/C(=O)N2CCN(c3nc(OCC45CCCN4CCC5)nc4c(F)c(-c5cccc6cccc(Cl)c56)ncc34)C[C@@H]2CC#N)n1 [Compound 120]; 3.21
3. N#CC[C@H]1CN(c2nc(OC[C@@]34CCCN3C[C@H](F)C4)nc3c(F)c(-c4cccc5ccc(F)c(Cl)c45)ncc23)CCN1C(=O)/C=C/CN1CCOCC1 [Compound 53]; 2.82
4. Cc1cc(N)nc(-c2ncc3c(N4CCN(C(=O)/C=C/CN5CCOCC5)[C@@H](CC#N)C4)nc(OC[C@@]45CCCN4C[C@H](F)C5)nc3c2F)c1C(F)(F)F [Compound 55]; 1.53

Here is the next item to consider.
## Input Param item = N#CC[C@H]1CN(c2nc(OC[C@@]34CCCN3C[C@H](F)C4)nc3c2CCN(c2cccc4cccc(Cl)c24)C3)CCN1C(=O)/C=C/c1nc([C@H]2C[C@@H]2F)no1 [Compound 37] ; retrieve measured logD.
## Output 4.85

###

- Assay Protocol: Determination of kinetic solubility (pH 7.4)
- Format: physicochemical
- Particulars: phosphate buffer, pH 7.4, aqueous buffer, kinetic from dmso stock, 50 mM phosphate buffer pH 7.4, read-out: Ksol, pH 7.4
// classify(record): look up solubility kinetic at 2 h in ranges class A = under 60 µg/mL, class B = from 60 µg/mL up to 100 µg/mL, class C = 100 µg/mL and over

## Input Note: place this compound into its band. Item: Cc1cc(/C=C/C(=O)N2CCN(c3nc(OC[C@@]45CCCN4C[C@H](F)C5)nc4c(F)c(-c5cccc6ccc(F)c(Cl)c56)ncc34)C[C@@H]2CC#N)nc(C)n1
## Output class A

## Input What about N#CC[C@H]1CN(c2nc(OC[C@@]34CCCN3C[C@H](F)C4)nc3c(F)c(-c4cccc5cccc(Cl)c45)ncc23)CCN1C(=O)/C=C/CN1CC[C@H](F)C1 ?
## Output class B

## Input Entry N#CC[C@H]1CN(c2nc(OC[C@@]34CCCN3C[C@H](F)C4)nc3c(F)c(-c4cccc(Cl)c4C4CC4)ncc23)CCN1C(=O)/C=C/CN1C2COCC1C2 please
## Output class B

## Input What about Cc1nnc(/C=C/C(=O)N2CCN(c3nc(OCC45CCCN4CCC5)nc4c3CCN(c3cccc5cccc(Cl)c35)C4)C[C@@H]2CC#N)[nH]1 ?
## Output class B

###

Measured logD by item
- Assay Protocol: Determination of logD (1-octanol / phosphate buffer pH 7.4)
- Assay type: physicochemical
- Particulars: 1-octanol/phosphate buffer, pH 7.4, pH 7.4, 1-octanol/phosphate buffer; read-out: Log D, pH 7.4
Answer using only a numeral; do not append any unit.

Use these answered entries as a reference point.
1) N#CC[C@H]1CN(c2nc(OC[C@@]34CCCN3C[C@H](F)C4)nc3c(F)c(-c4cccc5cccc(Cl)c45)ncc23)CCN1C(=O)/C=C/CN1CC[C@H](F)C1; 1.63
2) Cc1nccc(/C=C/C(=O)N2CCN(c3nc(OC[C@@]45CCCN4C[C@H](F)C5)nc4c(F)c(-c5cccc6ccc(F)c(C)c56)ncc34)C[C@@H]2CC#N)n1; 3.79
3) Cc1cc(N)nc(-c2ncc3c(N4CCN(C(=O)/C=C/c5nc(C(C)C)no5)[C@@H](CC#N)C4)nc(OC[C@@]45CCCN4C[C@H](F)C5)nc3c2F)c1C(F)(F)F; 3.42
4) Cc1cc(N)nc([C@@H]2Cc3nc(OC[C@@]45CCCN4C[C@H](F)C5)nc(N4CCN(C(=O)/C=C/CN(C)C)[C@@H](CC#N)C4)c3C[C@H]2C)c1C(F)(F)F; 2.79
5) C[C@@H]1CN(C/C=C/C(=O)N2CCN(c3nc(OC[C@@]45CCCN4C[C@H](F)C5)nc4c(F)c(-c5cccc6cccc(F)c56)ncc34)C[C@@H]2CC#N)C[C@@H](C)O1; 3.59

## Input Can you share its logD? I mean this molecule: N#CC[C@H]1CN(c2nc(OC[C@@]34CCCN3C[C@H](F)C4)nc3c2CCN(c2cccc4cccc(Cl)c24)C3)CCN1C(=O)/C=C/CN1CCOCC1
## Output 3.72

## Input Then what about the molecule Cc1nccc(/C=C/C(=O)N2CCN(c3nc(OC[C@@]45CCCN4C[C@H](F)C5)nc4c(F)c(-c5nc(N)cc6cccc(Cl)c56)ncc34)C[C@@H]2CC#N)n1 ?
## Output 2.25

## Input Field entry: N#CC[C@H]1CN(c2nc(OC[C@@]34CCCN3C[C@H](F)C4)nc3c(F)c(-c4cccc5cccc(Cl)c45)ncc23)CCN1C(=O)/C=C/CN1CC2CCC1CO2 (stereo partly drawn)
## Output 3

###

Some compounds, each annotated with its measured solubility kinetic at 2 h.
- Assay Protocol: Determination of kinetic solubility (pH 7.4)
- Assay type: physicochemical
- Particulars: phosphate buffer, pH 7.4, aqueous buffer, kinetic from dmso stock, 50 mM phosphate buffer pH 7.4, read-out: Ksol, pH 7.4
Use µg/mL as the unit, but write only the number.

// below: answered compounds
1) CC(C)c1noc(/C=C/C(=O)N2CCN(c3nc(OC[C@@]45CCCN4C[C@H](F)C5)nc4c(F)c(-c5ccccc5C(F)F)ncc34)C[C@@H]2CC#N)n1; 126
2) N#CC[C@H]1CN(c2nc(OC[C@@]34CCCN3C[C@H](F)C4)nc3c(F)c(-c4cccc5cccc(Cl)c45)ncc23)CCN1C(=O)/C=C/CN1CCCOCC1; 127

## Input What measured solubility kinetic at 2 h goes with C#Cc1c(F)ccc2cccc(-c3ncc4c(N5CCN(C(=O)/C=C/c6cc(C)nc(C)n6)[C@@H](CC#N)C5)nc(OC[C@@]56CCCN5C[C@H](F)C6)nc4c3F)c12 ?
## Output 1.49

###

- Assay Protocol: Determination of kinetic solubility (pH 7.4)
- Assay type: physicochemical
- Particulars: phosphate buffer, pH 7.4, aqueous buffer, kinetic from dmso stock, 50 mM phosphate buffer pH 7.4, read-out: Ksol, pH 7.4
Each entry below carries its recorded solubility kinetic at 2 h.
State the answer as a number, implicitly in µg/mL.

Answered cases to consult:
1. C[C@@H]1CN(C/C=C/C(=O)N2CCN(c3nc(OC[C@@]45CCCN4C[C@H](F)C5)nc4c(F)c(-c5cccc(Cl)c5C(F)(F)F)ncc34)C[C@@H]2CC#N)C[C@@H](C)O1 [Compound 307]; 124
2. CO[C@H]1CCN(C/C=C/C(=O)N2CCN(c3nc(OC[C@@]45CCCN4C[C@H](F)C5)nc4c(F)c(-c5cccc6ccc(F)c(Cl)c56)ncc34)C[C@@H]2CC#N)C1 [Example 80]; 146
3. N#CC[C@H]1CN(c2nc(OC[C@@]34CCCN3C[C@H](F)C4)nc3c(F)c(-c4cccc(Cl)c4C(F)F)ncc23)CCN1C(=O)/C=C/CN1[C@@H]2CC[C@H]1COC2 [Compound 275]; 106

## Input Entry under review: N#CC[C@H]1CN(c2nc(OCC34CCCN3CCC4)nc3c(F)c(-c4cccc5ccc(F)c(Cl)c45)ncc23)CCN1C(=O)/C=C/CN1C[C@H]2C[C@@H]1CO2 [Compound 183] . Reported solubility kinetic at 2 h?
## Output 110

## Input Quick one: N#CC[C@H]1CN(c2nc(OC[C@@]34CCCN3C[C@H](F)C4)nc3c(F)c(-c4cccc(Cl)c4C4CC4)ncc23)CCN1C(=O)/C=C/[C@H]1CCN1C1CC1 [Compound 314]
## Output 32.3
